# assay.summary: Pharmacokinetic analysis, plasma and tissue concentration
# Format: in vivo, CD1 mice
# conditions.used: CD1, mouse, esophagus, sc, 1 mg/kg
property.label: concentration at 8 h (ng/mL)
Entry rule: numbers only, all in ng/mL.

Lookup: Which measured concentration at 8 h value corresponds to "COC(=O)C[C@](O)(CCCC(C)(C)O)C(=O)O[C@@H]1C(OC)=C[C@]23CCCN2CCc2cc4c(cc2[C@H]13)OCO4" ?
Found: 52.6

###

# assay.summary: Pharmacokinetic analysis, plasma and tissue concentration
# Type: in vivo, CD1 mice
# conditions.used: CD1, mouse, heart, po, 1 mg/kg
property.label: concentration at 8 h (ng/mL)
# unit: ng/mL | format: bare number

Lookup: Give its concentration at 8 h value. Item: COC(=O)C[C@](O)(CCCC(C)(C)O)C(=O)O[C@@H]1C(OC)=C[C@]23CCCN2CCc2cc4c(cc2[C@H]13)OCO4 [HHT, homoharringtonine]
Found: 156

###

# assay.summary: Pharmacokinetic analysis, plasma and tissue concentration
# Assay type: in vivo, CD1 mice
# conditions.used: CD1, mouse, large intestine, sc, 1 mg/kg
property.label: concentration at 0.5 h (ng/mL)
# number only, unit ng/mL dropped from output

Lookup: Using the record for "COC(=O)C[C@](O)(CCCC(C)(C)O)C(=O)O[C@@H]1C(OC)=C[C@]23CCCN2CCc2cc4c(cc2[C@H]13)OCO4" , report its concentration at 0.5 h.
Found: 1030

###

# assay.summary: Pharmacokinetic analysis, plasma and tissue concentration
# Assay type: in vivo, CD1 mice
# conditions.used: CD1, mouse, bone marrow, sc, 1 mg/kg
property.label: concentration at 8 h (µg/mL)
# output: bare number, implied unit µg/mL

Lookup: Look at this compound and give its reported concentration at 8 h. "COC(=O)C[C@](O)(CCCC(C)(C)O)C(=O)O[C@@H]1C(OC)=C[C@]23CCCN2CCc2cc4c(cc2[C@H]13)OCO4"
Found: 0.0435

###

# assay.summary: Pharmacokinetic analysis, plasma and tissue concentration
# Format: in vivo, CD1 mice
# conditions.used: CD1, mouse, pancreas, po, 1 mg/kg
property.label: concentration at 24 h (ng/mL)
API: value field is a number in ng/mL; no unit string.

Lookup: Please report the recorded concentration at 24 h for "COC(=O)C[C@](O)(CCCC(C)(C)O)C(=O)O[C@@H]1C(OC)=C[C@]23CCCN2CCc2cc4c(cc2[C@H]13)OCO4" .
Found: 4.86

###

# assay.summary: Pharmacokinetic analysis, plasma and tissue concentration
# Format: in vivo, CD1 mice
# conditions.used: CD1, mouse, stomach, sc, 1 mg/kg
property.label: concentration at 8 h (ng/mL)
Note: unit ng/mL is implicit; provide only the numeric part.

Lookup: Could you share which concentration at 8 h value was measured for "COC(=O)C[C@](O)(CCCC(C)(C)O)C(=O)O[C@@H]1C(OC)=C[C@]23CCCN2CCc2cc4c(cc2[C@H]13)OCO4" ?
Found: 128

###

# assay.summary: Pharmacokinetic analysis, plasma and tissue concentration
# Format: in vivo, CD1 mice
# conditions.used: CD1, mouse, stomach, po, 1 mg/kg
property.label: concentration at 8 h
Write the numeric value and follow it with the unit.

Lookup: Would you kindly share the measured concentration at 8 h for "COC(=O)C[C@](O)(CCCC(C)(C)O)C(=O)O[C@@H]1C(OC)=C[C@]23CCCN2CCc2cc4c(cc2[C@H]13)OCO4" ?
Found: 870 ng/mL
